# measurement.target: PxylCSP9 (Plutella xylostella, UniProt A0A8S4FJE6)
# Sequence (A0A8S4FJE6 entry or part of it): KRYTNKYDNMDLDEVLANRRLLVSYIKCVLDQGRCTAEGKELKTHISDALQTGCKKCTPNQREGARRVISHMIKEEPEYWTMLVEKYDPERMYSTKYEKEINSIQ
pKi: −log10 of the molar value.
reported.property: pKi

# molecule, value.measured
measured = [
    ("CC(=O)CCC=C(C)C [Methyl heptenone]", 4.77),
]
